- system: Metabotropic glutamate receptor 7 (Rattus norvegicus)
- Sequence (P35400 whole entry): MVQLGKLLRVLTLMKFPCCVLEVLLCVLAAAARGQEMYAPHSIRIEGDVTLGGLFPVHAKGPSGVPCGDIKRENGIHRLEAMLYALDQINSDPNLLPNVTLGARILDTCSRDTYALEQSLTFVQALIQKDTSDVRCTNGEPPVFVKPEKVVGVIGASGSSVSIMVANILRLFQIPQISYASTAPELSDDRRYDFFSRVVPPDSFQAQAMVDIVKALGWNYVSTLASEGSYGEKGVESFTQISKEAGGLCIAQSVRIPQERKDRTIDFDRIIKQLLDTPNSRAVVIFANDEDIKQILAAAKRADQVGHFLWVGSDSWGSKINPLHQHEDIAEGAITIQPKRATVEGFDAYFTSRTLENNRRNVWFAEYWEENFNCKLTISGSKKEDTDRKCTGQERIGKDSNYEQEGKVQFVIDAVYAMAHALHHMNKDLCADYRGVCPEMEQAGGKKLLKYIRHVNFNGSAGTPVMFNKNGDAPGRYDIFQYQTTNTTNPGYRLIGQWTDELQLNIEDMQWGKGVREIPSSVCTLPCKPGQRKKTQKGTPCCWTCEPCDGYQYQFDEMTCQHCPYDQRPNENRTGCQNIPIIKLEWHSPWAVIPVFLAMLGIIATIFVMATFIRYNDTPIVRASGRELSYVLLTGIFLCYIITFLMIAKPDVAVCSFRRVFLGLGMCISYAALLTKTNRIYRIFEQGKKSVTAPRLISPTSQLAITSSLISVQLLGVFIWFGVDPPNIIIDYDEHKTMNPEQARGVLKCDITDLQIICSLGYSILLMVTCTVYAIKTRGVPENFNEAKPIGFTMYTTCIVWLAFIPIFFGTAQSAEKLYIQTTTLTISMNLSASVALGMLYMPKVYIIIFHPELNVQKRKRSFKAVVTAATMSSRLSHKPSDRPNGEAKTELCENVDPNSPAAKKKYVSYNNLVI
- protocol_notes: Positive allosteric modulation of rat mGlu7 receptor expressed in HEK293 cells co-expressing Gai5 assessed as potentiation of L-AP4-induced calcium mobilization preincubated for 140 secs and treated with EC20 L-AP4 for 125 secs and followed by subsequent addition of EC80 L-AP4 by Fluo-4-AM dye based fluorescence assay
measurement_name: EC50 (µM)
Answers are plain numbers, in µM.

Item under review: N#Cc1cnc2c(OC3CCOC3)cccc2c1N1CCN(c2ccccc2F)CC1 (stereo unspecified) . Reported EC50?
1.54

Hello, the source for this data is BindingDB's records for doi:10.1021/acsmedchemlett.0c00432, in case you need it.
